- test-system: recombinant human 5-HT6 receptor (Homo sapiens, UniProt P50406)
- Construct: expressed in transfected cells
- Sequence (P50406 whole entry): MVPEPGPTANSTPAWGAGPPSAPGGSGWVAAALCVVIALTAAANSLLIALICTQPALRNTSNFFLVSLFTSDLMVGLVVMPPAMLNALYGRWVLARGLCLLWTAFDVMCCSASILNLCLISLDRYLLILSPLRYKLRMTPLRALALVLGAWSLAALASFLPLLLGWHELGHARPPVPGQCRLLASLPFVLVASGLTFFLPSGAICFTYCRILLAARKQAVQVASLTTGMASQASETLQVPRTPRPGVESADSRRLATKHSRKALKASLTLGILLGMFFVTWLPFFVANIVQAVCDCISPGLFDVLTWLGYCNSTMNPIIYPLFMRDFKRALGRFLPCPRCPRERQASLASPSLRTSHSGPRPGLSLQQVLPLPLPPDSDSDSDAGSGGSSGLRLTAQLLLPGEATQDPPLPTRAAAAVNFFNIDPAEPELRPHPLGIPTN
- procedure-text: in vitro radioligand binding, [3H]LSD competition in HEK293 cell membranes
- condition-description: [3H]LSD (5 nM) displacement, membranes of HEK293 cells stably expressing recombinant human 5-HT6 receptor, pH 7.4, 37° C., 60 min; read-out: pKi (converted)
Ki reference
# number only, unit nM dropped from output

Field: example entries. Status: answers known.
O=S(=O)(c1ccccc1)c1cc2c(C3CCNCC3)cccc2[nH]1 [Compound 15] :: 0.631
CC1CN(c2cccc3[nH]c(S(=O)(=O)c4ccccc4)cc23)CC(C)N1 (stereo not shown) [Compound 9] :: 0.794
CN1CCN(c2cccc3[nH]c(S(=O)(=O)c4ccccc4)cc23)CC1 [Compound 2] :: 0.126

Kindly review the next compound as well.
Which Ki is reported with recombinant human 5-HT6 receptor (Homo sapiens, UniProt P50406) for this entry: CN1CCN(c2cccc3[nH]c(S(=O)(=O)c4ccccc4F)cc23)CC1 [Compound 12] ?
0.126
